assayNotes: PK assay in rat (IV and PO)
Assay type: in vivo
details: plasma, SD rats, IV 1 mg/kg, read-out: tz1/2 iv (terminal half-life) (converted)
metric: half-life (h)

COc1cc2nccc(Oc3ccc(NC(=O)c4nn(C5CCOCC5)cc(-c5ccc(F)cc5)c4=O)nc3)c2cc1OC [Compound 34] | 5.18
COc1cc2nccc(Oc3ccc(NC(=O)c4nn(CC5CCOCC5)cc(-c5ccc(C)cc5)c4=O)nc3)c2cc1OC [Compound 2] | 3.47
COc1cc2nccc(Oc3ccc(NC(=O)c4cn(C5CCOCC5)cc(-c5ccc(C)cc5)c4=O)nc3)c2cc1OC [Compound 19] | 2.44
COc1cc2nccc(Oc3ccc(NC(=O)c4cc(-c5ccc(C)cc5)cn(CC5CCOCC5)c4=O)nc3)c2cc1OC [Compound 13] | 9.08

a = COc1cc2nccc(Oc3ccc(NC(=O)c4nn(C5CCOCC5)cc(-c5ccc(C)cc5)c4=O)nc3)c2cc1OC [Compound 17]
b = COc1cc2nccc(Oc3cnc(NC(=O)c4nn(C5CCOCC5)cc(-c5ccc(C)cc5)c4=O)nc3)c2cc1OC [Compound 18]
## Input Quick check, higher half-life between a and b ? Provide the label of your selected option as the answer.
## Output a
(a: 3.98 h, b: 0.96 h)

----------
targetOrTestSystem: H1299 cell pAxl (Homo sapiens, UniProt P30530)
Construct: endogenous in cells
Sequence (P30530 26-894): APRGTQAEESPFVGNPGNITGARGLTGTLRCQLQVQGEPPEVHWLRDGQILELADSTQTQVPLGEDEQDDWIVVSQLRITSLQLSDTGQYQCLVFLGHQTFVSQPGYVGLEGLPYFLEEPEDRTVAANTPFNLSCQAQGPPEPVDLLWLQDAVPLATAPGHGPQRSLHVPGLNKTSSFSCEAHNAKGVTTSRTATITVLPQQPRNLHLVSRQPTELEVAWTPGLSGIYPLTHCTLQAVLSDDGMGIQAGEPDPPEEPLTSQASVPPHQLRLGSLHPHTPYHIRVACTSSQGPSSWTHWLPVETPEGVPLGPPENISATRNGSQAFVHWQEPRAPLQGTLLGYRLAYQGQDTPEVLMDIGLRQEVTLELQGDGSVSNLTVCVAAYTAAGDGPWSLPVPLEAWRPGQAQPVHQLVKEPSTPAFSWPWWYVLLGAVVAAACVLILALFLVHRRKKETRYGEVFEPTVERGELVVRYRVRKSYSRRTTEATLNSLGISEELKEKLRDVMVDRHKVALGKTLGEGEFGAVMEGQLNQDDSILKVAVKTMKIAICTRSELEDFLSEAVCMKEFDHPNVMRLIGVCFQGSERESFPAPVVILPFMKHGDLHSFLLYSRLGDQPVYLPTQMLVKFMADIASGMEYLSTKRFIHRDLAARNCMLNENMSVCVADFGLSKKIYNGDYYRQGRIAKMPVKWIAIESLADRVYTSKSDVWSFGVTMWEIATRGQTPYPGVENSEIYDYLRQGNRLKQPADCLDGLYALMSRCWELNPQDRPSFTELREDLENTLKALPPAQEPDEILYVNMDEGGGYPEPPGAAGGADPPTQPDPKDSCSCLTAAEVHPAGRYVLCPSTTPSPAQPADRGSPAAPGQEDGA
assayNotes: Inhibitory activity on cell pAxl, H1299 cells, hGAS6 stimulation, Western Blot
details: hGAS6 200 ng/mL
Recorded IC50, one value per entry.

Guide cases for IC50, answers given:
COc1cc2nccc(Oc3cnc(NC(=O)c4cn(C5CCOCC5)cc(-c5ccc(F)cc5)c4=O)nc3)c2cc1OC [Compound 31] | < 3.3 nM
Cc1ccc(-c2cn(C3CCOCC3)nc(C(=O)Nc3ccc(Oc4ccnc5cc6c(cc45)OCO6)cn3)c2=O)cc1 [Compound 29] | 30 nM
COc1cc2nccc(Oc3cnc(NC(=O)c4nn(C5CCOCC5)cc(-c5ccc(F)cc5)c4=O)nc3)c2cc1OC [Compound 33] | 3.3 nM
COc1cc2nccc(Oc3ccc(NC(=O)c4nn(C5CCOCC5)cc(-c5ccc(C)cc5)c4=O)cc3F)c2cc1OC [Compound 28] | 1.1 nM

## Input State the recorded IC50 for this entry: COc1cc2nccc(Oc3ccc(NC(=O)c4nn(C5CCOCC5)cc(-c5ccc(F)cc5)c4=O)nc3)c2cc1OC [Compound 34]
## Output < 1.1 nM

## Input Fill in the blank: the reported IC50 of COc1cc2nccc(Oc3ccc(NC(=O)c4cn(C5CCOCC5)cc(-c5ccc(F)cc5)c4=O)nc3)c2cc1OC [Compound 27] is ____.
## Output < 1.1 nM

## Input Looking for the measured IC50 of Cc1ccc(-c2cn(C3CCOCC3)nc(C(=O)Nc3ccc(Oc4ccnc5cc6c(cc45)OCCO6)cn3)c2=O)cc1 [Compound 30] , can you help?
## Output > 10 nM

## Input Which IC50 value is on record for COc1cc2nccc(Oc3ccc(NC(=O)c4cc(CC5CCOCC5)cn(-c5ccc(F)cc5)c4=O)nc3)c2cc1OC [Compound 32] ?
## Output < 1.1 nM

----------
targetOrTestSystem: H1299 cell pMer (Homo sapiens)
Construct: endogenous in cells
Sequence (Q12866 21-999): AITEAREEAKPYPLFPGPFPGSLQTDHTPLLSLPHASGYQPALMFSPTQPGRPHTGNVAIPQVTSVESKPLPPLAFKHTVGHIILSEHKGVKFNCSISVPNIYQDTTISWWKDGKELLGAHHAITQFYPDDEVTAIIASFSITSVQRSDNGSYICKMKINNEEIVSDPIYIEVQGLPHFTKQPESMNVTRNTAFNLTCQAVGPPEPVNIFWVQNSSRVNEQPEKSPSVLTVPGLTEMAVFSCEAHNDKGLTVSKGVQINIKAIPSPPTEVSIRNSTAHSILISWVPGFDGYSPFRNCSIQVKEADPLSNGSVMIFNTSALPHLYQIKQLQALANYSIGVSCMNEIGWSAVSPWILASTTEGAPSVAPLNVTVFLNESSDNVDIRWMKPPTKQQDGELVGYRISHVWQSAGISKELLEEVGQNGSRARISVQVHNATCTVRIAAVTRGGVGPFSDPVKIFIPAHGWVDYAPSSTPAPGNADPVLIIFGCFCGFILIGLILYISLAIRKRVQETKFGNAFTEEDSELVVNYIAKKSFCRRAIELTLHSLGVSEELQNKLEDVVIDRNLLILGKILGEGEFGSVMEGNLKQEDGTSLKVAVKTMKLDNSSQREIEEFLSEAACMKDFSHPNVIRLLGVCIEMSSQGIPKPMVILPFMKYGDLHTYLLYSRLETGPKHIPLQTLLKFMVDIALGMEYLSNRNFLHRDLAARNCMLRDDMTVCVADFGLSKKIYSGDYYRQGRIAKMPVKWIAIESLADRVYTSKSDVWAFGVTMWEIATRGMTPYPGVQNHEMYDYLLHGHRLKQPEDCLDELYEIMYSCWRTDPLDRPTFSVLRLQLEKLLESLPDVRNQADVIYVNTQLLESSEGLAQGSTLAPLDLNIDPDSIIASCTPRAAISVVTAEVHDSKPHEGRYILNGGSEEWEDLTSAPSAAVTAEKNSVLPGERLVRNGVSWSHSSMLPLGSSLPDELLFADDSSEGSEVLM
assayNotes: Inhibitory activity on cell pMer, H1299 cells, Human Mer Mab stimulation, Western Blot
details: Human Mer Mab 200 ng/mL
pIC50: −log10 of the molar value.
pIC50 values by entry

Examples from the recorded data:
COc1cc2nccc(Oc3cnc(NC(=O)c4nn(C5CCOCC5)cc(-c5ccc(C)cc5)c4=O)nc3)c2cc1OC | > 8.96
COc1cc2nccc(Oc3ccc(NC(=O)c4nn(C5CCOCC5)cc(-c5ccc(C)cc5)c4=O)cc3F)c2cc1OC | 8.96
COc1cc2nccc(Oc3ccc(NC(=O)c4cn(CC5CCSCC5)cc(-c5ccc(C)cc5)c4=O)nc3)c2cc1OC | 8.48 to 8.96

## Input What measured pIC50 goes with COc1cc2nccc(Oc3ccc(NC(=O)c4cn(C5CCOCC5)cc(-c5ccc(F)cc5)c4=O)nc3)c2cc1OC ?
## Output > 8.96

## Input Given the molecule COc1cc2nccc(Oc3ccc(NC(=O)c4cn(C5CCOCC5)cc(-c5ccc(C)cc5)c4=O)nc3)c2cc1OC , what is its reported pIC50?
## Output > 9.46

## Input Entry COc1cc2nccc(Oc3ccc(NC(=O)c4cn(CC5CCOCC5)cc(-c5ccc(C)cc5)c4=O)nc3)c2cc1OC has what pIC50?
## Output 8.48 to 8.96

## Input What does the data say about its pIC50? Entry: COc1cc2nccc(Oc3ccc(NC(=O)c4cc(CC5CCOCC5)cn(-c5ccc(F)cc5)c4=O)nc3)c2cc1OC
## Output 8.96
